System: XF 498 CNS
testMethodNotes: NCI tumour cell line growth inhibition, 48 h
TGI listing for selected compounds.

[[record]]
compound = "CC1OC(=O)N(CCCC=C2SCCCS2)C1=O (centres undefined)"
measuredresult = "> 100 µM"

[[record]]
compound = "c1ccc(C2=NN3CN(N2)c2ccccc2OCCCOc2ccccc23)cc1"
measuredresult = "> 100 µM"

[[record]]
compound = "CCOC(=O)C1C(c2cc(OC)c(O)c(OC)c2)c2cc3c(cc2OC1(C)O)OCO3 (centres undefined)"
measuredresult = "> 100 µM"

[[record]]
compound = "COc1ccc([Se]c2ccc(OC)cc2OC)c(OC)c1"
measuredresult = "> 100 µM"


// query In one line, give reported TGI of the entry c1ccc(SCCCC(Sc2ccccc2)Sc2ccccc2)cc1 .
// result > 100 µM

* * *

Test system: MDA-MB-435
testMethodNotes: NCI tumour cell line growth inhibition, 48 h
assayEndpoint: TGI (µM)
Report the value in µM with no unit label.

Below are worked cases with known answers.
[[record]]
compound = "COc1ccc2nc3ccc(OC)cc3c(SCCCN)c2c1"
assayendpoint = "TGI"
measuredresult = 27.6

[[record]]
compound = "O=C1c2ccccc2NC2C(O)c3ccccc3N12 (configuration not stated)"
assayendpoint = "TGI"
measuredresult = 31.9


// query In one line, give reported TGI of the entry COc1cc2oc3ccccc3c(=O)c2cc1CSc1ccccc1N .
// result 8.93

// query In one line, give reported TGI of the entry Cc1nn(-c2ccccc2)c2c1C1C(=C(c3ccc(Cl)cc3)N2)C(=O)Nc2ccccc21 (configuration not stated) .
// result 17.2

// query In one line, give reported TGI of the entry COc1cc[nH]c1/C=C1\C(=O)Nc2ccc(F)c(C#CC3(O)CCOCC3)c21 .
// result 4.05

* * *

System: SK-MEL-28 melanoma
testMethodNotes: NCI tumour cell line growth inhibition, 48 h
GI50 listing for selected molecules.

Below are worked cases with known answers.
[[record]]
molecule = "COC(=O)C(C)N1C(=O)c2ccccc2I1OC(C)=O (stereo not drawn)"
measuredresult = "88 µM"

[[record]]
molecule = "CC(=O)[CH-]C(=O)c1ccccc1.CC(=O)[CH-]C(=O)c1ccccc1.[O]=[U+2]=[O]"
measuredresult = "36.2 µM"

[[record]]
molecule = "COc1ccc(C2=CC(c3cc(OC)c(OC)c(OC)c3)n3ncnc3N2)cc1 (stereo not drawn)"
measuredresult = "10.9 µM"

[[record]]
molecule = "O=C1c2c(O)cccc2C(C(=O)CCCCC(=O)C2c3cccc(O)c3C(=O)c3c(O)cccc32)c2cccc(O)c21"
measuredresult = "1.54 µM"

[[record]]
molecule = "COc1ccccc1C1C(C#N)=C(N)OC2=C1C(=O)CCC2 (stereo not drawn)"
measuredresult = "> 100 µM"


// query In one line, give reported GI50 of the entry O=C1C=C(Nc2cccc(Br)c2)c2ccccc2C1=O .
// result 8.76 µM

// query In one line, give reported GI50 of the entry O=C(N[C@@H]1CCCc2ccccc21)[C@H](CCC(=O)N1CCN(C2CCCCC2)CC1)N1C(=O)[C@@H](N2C(=O)OC[C@@H]2c2ccccc2)[C@H]1/C=C/c1ccccc1 .
// result 1.77 µM

// query In one line, give reported GI50 of the entry COc1cc[nH]c1/C=C1\C(=O)Nc2ccc(F)c(C#CC3(O)CCOCC3)c21 .
// result 0.677 µM
